Tested on: CCRIS mutagenicity, Ames/micronucleus/aberration tests
assay procedure: CCRIS mutagenicity studies
measurement setup: Test System: AMES SALMONELLA TYPHIMURIUM; Strain/Indicator: TA100; Metabolic Activation: NONE; Method: STANDARD PLATE
Text: The CCRIS database contains chemical records with carcinogenicity, mutagenicity, tumor promotion, and tumor inhibition test results. It was developed by the National Cancer Institute (NCI). Data are derived from studies cited in primary journals, current awareness tools, NCI reports, and other sources. Test results have been reviewed by experts in carcinogenesis and mutagenesis. CCRIS provides historical information from the years 1985 - 2011. It is no longer updated. […]
The source made the active and inactive calls. How the calls were made is not given here.
Classes used: yes (1) (active), no (0) (inactive)

molecule: Cc1cc(O)c2c(c1)C(=O)c1c(c(O)cc(O)c1-c1c(O)cc(O)c3c1C(=O)c1cc(C)cc(O)c1C3=O)C2=O
label value: no (0)

molecule: CC(C)OC(=O)/C(Cl)=C(/Cl)C=O
label value: yes (1)

molecule: CN(C)C(=O)Oc1ccc[n+](C)c1
label value: no (0)

molecule: Cc1ccc(CC2CO2)cc1 (stereo unspecified)
label value: yes (1)

molecule: c1cnc2ccc3c(c2c1)CC[C@@H]1O[C@H]31
label value: no (0)

molecule: C[C@@]12CCC=C(C=O)[C@]1(C=O)C2
label value: yes (1)

molecule: Nc1c(N=Nc2ccc([N+](=O)[O-])cc2)c(S(=O)(=O)O)cc2c1C(=O)/C(=N\Nc1ccc(-c3ccc(NN=C4C=CC(=O)C=C4)cc3)cc1)C(S(=O)(=O)O)=C2
label value: no (0)

molecule: CC(=O)Nc1ccc(Oc2ccccc2)cc1
label value: no (0)

molecule: O=C(/C=C/c1ccc([N+](=O)[O-])cc1)c1ccccc1
label value: no (0)

molecule: Cc1cn(CC(O)CN=[N+]=[N-])c(=O)[nH]c1=O (stereo unspecified)
label value: yes (1)

molecule: ClC/C=C\CCl
label value: yes (1)

molecule: COc1ccc(N)c(OC)c1
label value: no (0)

molecule: Cc1ccc(OS(=O)(=O)c2cccc3cccnc23)c([N+](=O)[O-])c1
label value: yes (1)

molecule: O=[N+]([O-])c1ccc2c3c(cccc13)-c1ccccc1-2
label value: yes (1)

molecule: Nc1ccc(/C=C/c2ccccc2)cc1
label value: no (0)

molecule: CC(=O)OCc1cc(C(C)=O)ccc1OC(C)=O
label value: yes (1)

molecule: Oc1c(Cl)c(Cl)c(Cl)c(Cl)c1Cl
label value: no (0)

molecule: CC(C)CCC[C@@H](C)[C@H]1CC[C@H]2[C@@H]3C[C@@H]4O[C@@]45C[C@@H](O)CC[C@]5(C)[C@H]3CC[C@]12C
label value: no (0)

molecule: CCOc1ccccc1OCC1CNCCO1 (stereo unspecified)
label value: no (0)

molecule: N#Cc1cccc2c([N+](=O)[O-])cccc12
label value: yes (1)

molecule: C[n+]1cccc2c1C=C[C@H]1O[C@@H]21
label value: no (0)

molecule: NNC(=O)c1ccncc1
label value: yes (1)

molecule: Nc1ccc(/C=C/c2ccc([N+](=O)[O-])cc2)cc1
label value: no (0)

molecule: CCN(CCCl)c1ccc(CCCNc2c3ccccc3nc3ccccc23)cc1
label value: yes (1)

molecule: O=C(O)c1ccccc1Nc1cc(Cl)ccc1C(=O)O
label value: no (0)

molecule: CC(C)(Cl)Cl
label value: no (0)
